- Test system: ATP;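 note: ATP exposure 15 min at 22 °C before imaging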
- test method notes: switch fluorescence ratio, 500 uM ATP over buffer (Cy3 cluster intensity, sum of 5 cycles each) (fold (ratio)); higher = stronger signal-on switching upon ATP binding; sequences stand for … in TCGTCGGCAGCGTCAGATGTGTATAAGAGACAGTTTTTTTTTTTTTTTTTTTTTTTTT…TC
- assay context: aptamer strand: ATP DNA aptamer (quencher-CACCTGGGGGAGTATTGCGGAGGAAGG + anchor), 100 nM annealed; ATP concentration: 500 uM
If the reported switch fluorescence ratio equals or exceeds 1, assign Met. If not, assign Not met.

{"polymer sequence": "CGTGGGTTCG", "label": "Not met"}
{"polymer sequence": "CGTTTTTGGA", "label": "Not met"}
{"polymer sequence": "AAACTGCTCG", "label": "Met"}
{"polymer sequence": "ACGGTCATAT", "label": "Met"}
{"polymer sequence": "CGTTATATAA", "label": "Met"}
{"polymer sequence": "TTTCTGCAGT", "label": "Met"}
{"polymer sequence": "TTTAACTGG", "label": "Met"}
{"polymer sequence": "GGTTACGCTA", "label": "Met"}
{"polymer sequence": "TTTTTTATTC", "label": "Met"}
{"polymer sequence": "TTGTTATCCG", "label": "Not met"}
{"polymer sequence": "ACGGAATGTT", "label": "Met"}
{"polymer sequence": "GCTTTGGATA", "label": "Met"}
{"polymer sequence": "TCATGCATGT", "label": "Met"}
{"polymer sequence": "ATTGCAATGG", "label": "Met"}
{"polymer sequence": "AATATATCCG", "label": "Met"}
{"polymer sequence": "GGGATCCCTT", "label": "Met"}
{"polymer sequence": "GGCTTCTTGA", "label": "Not met"}
{"polymer sequence": "GATGGTAAAC", "label": "Met"}

###

Item-by-item account of switch fluorescence ratio
- Test system: ATP;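 note: ATP exposure 15 min at 22 °C before imaging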
- test method notes: switch fluorescence ratio, 500 uM ATP over buffer (Cy3 cluster intensity, sum of 5 cycles each) (fold (ratio)); higher = stronger signal-on switching upon ATP binding; sequences stand for … in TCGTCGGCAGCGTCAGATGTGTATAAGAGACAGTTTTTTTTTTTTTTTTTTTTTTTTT…TC
- assay context: aptamer strand: ATP DNA aptamer (quencher-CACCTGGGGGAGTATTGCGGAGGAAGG + anchor), 100 nM annealed; ATP concentration: 500 uM
measure name: switch fluorescence ratio

{"polymer sequence": "TCGAAGGGGT", "target": "ATP", "value measured": 0.982}
{"polymer sequence": "GGGGACAGGG", "target": "ATP", "value measured": 1.01}
{"polymer sequence": "CGTGGATGAC", "target": "ATP", "value measured": 0.994}
{"polymer sequence": "AAAAGCGTAG", "target": "ATP", "value measured": 1.01}
{"polymer sequence": "TAAATACTCT", "target": "ATP", "value measured": 1.16}
{"polymer sequence": "TGTTGCGCCG", "target": "ATP", "value measured": 0.929}
{"polymer sequence": "ATTAGGAGAC", "target": "ATP", "value measured": 1.01}
{"polymer sequence": "ATTTTTGGAG", "target": "ATP", "value measured": 0.979}
{"polymer sequence": "AGTGGCATGC", "target": "ATP", "value measured": 0.985}
{"polymer sequence": "GGAAAGAACA", "target": "ATP", "value measured": 0.982}
{"polymer sequence": "TTATTTAAAA", "target": "ATP", "value measured": 1}
{"polymer sequence": "TTCGGGGGCA", "target": "ATP", "value measured": 1.01}
{"polymer sequence": "CCTAAAAGTT", "target": "ATP", "value measured": 1.01}
{"polymer sequence": "TTGATAGGGG", "target": "ATP", "value measured": 1.01}
{"polymer sequence": "ATGCATCGAG", "target": "ATP", "value measured": 1.01}
{"polymer sequence": "GCTCAGGGGG", "target": "ATP", "value measured": 1.03}
{"polymer sequence": "ATTCGTGGGA", "target": "ATP", "value measured": 0.989}
{"polymer sequence": "TCATTAAGGC", "target": "ATP", "value measured": 1.01}
{"polymer sequence": "GTTTTTGTCA", "target": "ATP", "value measured": 1.02}
{"polymer sequence": "AACTCAGGGG", "target": "ATP", "value measured": 1.29}
{"polymer sequence": "TCATACTTAA", "target": "ATP", "value measured": 1.04}
{"polymer sequence": "GATTTAAATA", "target": "ATP", "value measured": 0.98}
{"polymer sequence": "TGGGGGATGT", "target": "ATP", "value measured": 1.01}
{"polymer sequence": "GATTTACATT", "target": "ATP", "value measured": 1.02}
{"polymer sequence": "GGTAGTATGG", "target": "ATP", "value measured": 1}
{"polymer sequence": "TCTTTTTCTT", "target": "ATP", "value measured": 1.01}
{"polymer sequence": "AAAGCAGTTT", "target": "ATP", "value measured": 1.05}
{"polymer sequence": "TTAAACGGAC", "target": "ATP", "value measured": 1.36}
{"polymer sequence": "TTGTAACATT", "target": "ATP", "value measured": 1.02}
{"polymer sequence": "AGTATTACGG", "target": "ATP", "value measured": 0.999}
{"polymer sequence": "GTTGGGCCGT", "target": "ATP", "value measured": 0.987}
{"polymer sequence": "GTTGAAGG", "target": "ATP", "value measured": 0.999}
{"polymer sequence": "ACACGGTGGG", "target": "ATP", "value measured": 0.975}
{"polymer sequence": "AATGGAGTGG", "target": "ATP", "value measured": 0.997}
{"polymer sequence": "TTGGGTAGGC", "target": "ATP", "value measured": 0.985}
{"polymer sequence": "GTTGAGGAGG", "target": "ATP", "value measured": 0.989}
{"polymer sequence": "GCCGCCGTGT", "target": "ATP", "value measured": 0.983}
{"polymer sequence": "TACTGGGCAC", "target": "ATP", "value measured": 3.22}
{"polymer sequence": "GGGGATTTCA", "target": "ATP", "value measured": 0.989}
{"polymer sequence": "GACCATGTTT", "target": "ATP", "value measured": 0.993}
{"polymer sequence": "AATTCGTGCG", "target": "ATP", "value measured": 0.987}
{"polymer sequence": "TTACAAAATA", "target": "ATP", "value measured": 1.03}
{"polymer sequence": "AGAGGCAGCT", "target": "ATP", "value measured": 1.03}
